assayed target: T1, Claudin 18.2 (CLDN18.2), expressed on CHOS-CLDN 18.2 / HEK293-CLDN 18.2 / HCC827-CLDN 18.2 cells (human, UniProt P56856-2 1-261)
T1 construct: whole, on cells; The species is not repeated for the CHOS-CLDN 18.2 cells; also called claudin-18A2
assay text: FACS, CHOS-CLDN18.2 cells, 1.250 µg/ml

binder: QP024025 (antibody, human IgG1, V domains shown, also called IMAB362; 175D10(IMAB362)) VH: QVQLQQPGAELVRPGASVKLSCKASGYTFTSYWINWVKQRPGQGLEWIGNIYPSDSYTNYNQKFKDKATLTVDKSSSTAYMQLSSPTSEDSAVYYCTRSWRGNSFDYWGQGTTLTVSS VL: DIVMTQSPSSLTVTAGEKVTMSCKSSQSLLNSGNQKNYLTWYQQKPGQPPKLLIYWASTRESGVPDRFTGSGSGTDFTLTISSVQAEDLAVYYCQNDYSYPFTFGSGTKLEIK
FACS reading: 63700
